target: Giardia lamblia fructose 1,6-bisphosphate aldolase (GlFBPA) (Giardia intestinalis); test: GlFBPA inhibition constants, steady-state kinetics
Sequence (A8B2U2 whole entry): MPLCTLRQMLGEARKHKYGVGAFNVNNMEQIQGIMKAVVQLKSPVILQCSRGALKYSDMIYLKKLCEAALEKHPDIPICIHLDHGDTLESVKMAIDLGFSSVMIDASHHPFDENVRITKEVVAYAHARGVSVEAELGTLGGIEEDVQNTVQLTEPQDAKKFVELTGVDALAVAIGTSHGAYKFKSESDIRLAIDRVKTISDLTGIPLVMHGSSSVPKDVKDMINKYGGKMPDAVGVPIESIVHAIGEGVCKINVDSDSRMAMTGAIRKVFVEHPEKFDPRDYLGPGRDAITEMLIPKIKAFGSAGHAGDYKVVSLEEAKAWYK
measurement label: Ki (µM)

>>> print(df.to_string())
                                   compound  number
0  O=c1c(O)cccn1CP(=O)(O)O [Compound 1, N-phosphonomethyl-3-hydroxy-2-pyridone]    1200
